FYI, the data here is from the supplement of paper PMC6755084.

B1: minF1; a variant is named by its letters at N, in order (parent)
chain: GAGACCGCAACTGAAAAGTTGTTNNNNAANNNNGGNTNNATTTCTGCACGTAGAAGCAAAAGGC

variants of: B1; assay: fraction ligated after 30 min (ligated reads / total reads); higher = more ligase activity; conditions: with F1*subA RNA substrate (template-directed ligation), 42 °C
quantity-measured: fraction ligated
No unit in the answer, please; the number alone is enough.

>>> number("ATCAAATGGTT A28G G34T T37G A40G")
0.000795
>>> number("ATCAAATGGTT A28G T37G")
0.00127
>>> number("ATCGATGAGTT G34T T37G A40G")
0.00104
>>> number("ATCAATGAGTG A28G G34T")
0.00581
>>> number("TCAGATGGGTG T23A G34A")
0.00659
>>> number("ACGAGGAGTGA A29T")
0.00454
>>> number("TCGATGGTGTA T23A")
0.00392
>>> number("TCAGAGTGTGA")
0.00219
>>> number("ACAGAGGTTGA")
0.00073
>>> number("ATAAGGTGTGA A29T")
0.00316

Query: # fraction ligated lookup, item ATCGATGTGTG
Response: 0.00543
